system_name: T1, TFAM (no MTS) (Homo sapiens, UniProt Q00059 43-246)
T1 sequence: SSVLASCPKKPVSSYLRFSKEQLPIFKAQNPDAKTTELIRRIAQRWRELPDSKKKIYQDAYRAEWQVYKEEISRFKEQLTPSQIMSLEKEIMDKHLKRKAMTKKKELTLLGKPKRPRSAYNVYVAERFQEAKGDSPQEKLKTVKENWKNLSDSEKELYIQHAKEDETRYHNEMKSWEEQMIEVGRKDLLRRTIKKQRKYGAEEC
assay_info: fluorescence anisotropy; +UVC; Hill n 1.90±0.12; FP: 25 mM HEPES, 10 mM Mg(OAc)2, 25 mM NaOAc, 75 mM KOAc, pH 7.5, 1 nM DNA, TFAM 0-15 nM diluted on ice (read temperature not stated); AFM oligos: on ice, 2 min
particulars: protein: recombinant; label: 5' 6-FAM on strand 1; blunt
pKd: −log10 of the molar value.
observable: pKd

>  <binder>
ND1_288 +UVC (dsDNA, UVC 1500 J/m2 photolesions (positions undefined)) DNA 1: CTCCACACTAGCAGAGACCAACCGAACCCCCTT DNA 2: AAGGGGGTTCGGTTGGTCTCTGCTAGTGTGGAG

>  <value_measured>
8.21

$$$$
